Test system: RARg:RXRa (NR concentration 270 nM, RXRa partner concentration 90 nM)
assayRemarks: PBM binding z-score (relative to random genomic background probes); higher = stronger binding; sequences stand for … in GC…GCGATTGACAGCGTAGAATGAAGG
Reported PBM binding z-score values are given for each entry in this list.
Give the value as a plain number.

A selection of reference data follows.
{"itemSequence": "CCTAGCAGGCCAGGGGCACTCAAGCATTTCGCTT", "measValue": -0.38}
{"itemSequence": "CCTAGCAGGCCAATCTGGGTCACCCAAGGCTTGA", "measValue": 1.34}
{"itemSequence": "AGAACGAGGGCACGCTGCGTTGATAGCAGAGTAG", "measValue": 1.55}
{"itemSequence": "TCTGCTAGGTCAGTTGGTCAGGTAACGAGCTGCC", "measValue": 2.55}
{"itemSequence": "TCATATAGGTAAGTGCTAGGTGAAAGTCCGATCT", "measValue": 0.114}

Let us examine a further case.
Record summary for "TCTATTAGTTGATTAGGGCAACTGAAACAGCGGA" : reported PBM binding z-score = 0.45

* * *

System: PXR homodimer (NR concentration 270 nM)
assayRemarks: PBM binding z-score (relative to random genomic background probes); higher = stronger binding; sequences stand for … in GC…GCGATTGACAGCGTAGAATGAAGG
observationType: PBM binding z-score
No unit in the answer, only the number.

{"itemSequence": "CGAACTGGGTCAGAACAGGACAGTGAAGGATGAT", "PBM binding z-score": -0.389}
{"itemSequence": "TTACCAAGGTGAGCTGAGGTCGTTGAACCAACTC", "PBM binding z-score": 0.275}
{"itemSequence": "TCATATAGTTAAAAGGTGAAAGTCGGTGTGGTAA", "PBM binding z-score": 0.951}

So for "CGTCCAAGGGCATAGGAGGTCAGTGAAGACAGAT" , the logged PBM binding z-score turned out to be 1.16

For record "GCTAGTTGGTCAGTAAAAGGTCACAGACCGGTCG" the listed PBM binding z-score is 1.24

Record "TCTTGTAGATCAGCAGGTAAAGAAAGCTGGCCAA" . Reported PBM binding z-score: -0.358

Form: sequence = "CGAACTAGGTCAGAACAGGACCGTGAAGGATGAT" ; PBM binding z-score = -0.758

Quick note, PBM binding z-score for "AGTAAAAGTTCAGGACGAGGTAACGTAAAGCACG" landed at 1.45

* * *

Tested on: PPARg:RXRa 90nM:30nM, anti-RXR (NR concentration 90 nM, RXRa partner concentration 30 nM)
assayRemarks: PBM binding z-score (relative to random genomic background probes); higher = stronger binding; sequences stand for … in GC…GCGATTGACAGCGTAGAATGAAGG
Recorded PBM binding z-score values for a group of sequences are listed next.
Format: numeric value only, no unit, no commentary.

Record "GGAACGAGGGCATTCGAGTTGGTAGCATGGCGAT" , field PBM binding z-score: -0.227

The sequence listed as "CCAGACAGCTGAAAGGTAACTCAGTCTGGTACGC" has a reported PBM binding z-score of -0.401

Briefly, PBM binding z-score measured for "CCTAGTTGGTCCGGAGGTCACACACCGGATATGA" : 3.05

* * *

System: PPARg:RXRa IVT, anti-PPARg (NR concentration 270 nM, RXRa partner concentration 90 nM)
assayRemarks: PBM binding z-score (relative to random genomic background probes); higher = stronger binding; sequences stand for … in GC…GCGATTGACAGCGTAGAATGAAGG
Classification by PBM binding z-score follows these ranges: lo: < 1; med: ≥ 1 and < 2; hi: ≥ 2

Illustrative cases are given below, each with its answer.
{"itemSequence": "CCGAGTGGGGCAGAAAGGTTACCATACCATCCGG", "systemName": "PPARg:RXRa IVT, anti-PPARg (NR concentration 270 nM, RXRa partner concentration 90 nM)", "assignedClass": "med"}
{"itemSequence": "AGAACGAGGGCACGGTGAGTTGATAGCAGAGTAG", "systemName": "PPARg:RXRa IVT, anti-PPARg (NR concentration 270 nM, RXRa partner concentration 90 nM)", "assignedClass": "hi"}
{"itemSequence": "CCCACTGGGCCAAGGTCATTGATCAGTCAAAGCA", "systemName": "PPARg:RXRa IVT, anti-PPARg (NR concentration 270 nM, RXRa partner concentration 90 nM)", "assignedClass": "hi"}
{"itemSequence": "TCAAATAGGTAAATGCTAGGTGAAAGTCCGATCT", "systemName": "PPARg:RXRa IVT, anti-PPARg (NR concentration 270 nM, RXRa partner concentration 90 nM)", "assignedClass": "hi"}
{"itemSequence": "GCGACTGGGGCATCAGCAGTTTACCATAACTTAA", "systemName": "PPARg:RXRa IVT, anti-PPARg (NR concentration 270 nM, RXRa partner concentration 90 nM)", "assignedClass": "hi"}
{"itemSequence": "ACTATTAGTTGACTTAGGGCAAGCGATACGACGC", "systemName": "PPARg:RXRa IVT, anti-PPARg (NR concentration 270 nM, RXRa partner concentration 90 nM)", "assignedClass": "lo"}
{"itemSequence": "CCTTACCGGTCACTCCAGGTTATAGCATCGGAGT", "systemName": "PPARg:RXRa IVT, anti-PPARg (NR concentration 270 nM, RXRa partner concentration 90 nM)", "assignedClass": "med"}
{"itemSequence": "TCTTGTAGATCAGCAGGTTAAGAACGCTGGCCAA", "systemName": "PPARg:RXRa IVT, anti-PPARg (NR concentration 270 nM, RXRa partner concentration 90 nM)", "assignedClass": "lo"}

[in] State the band of "GCTATTAGTTGACAGGGCAACCGAATGATTCTCG"
[out] lo

[in] Lab log: "ATCTCTAGGTAACAAGTTCAGTGAGAGAGAGGAC" — assign PBM binding z-score category
[out] hi

[in] Category lookup for the sequence "CGTCAAAGTTCAACTAAGGTAACGAAAAGCACGC"
[out] hi

[in] Which bin, given its PBM binding z-score, does "CCTCGAAGGACAACAGGAGGTCAGAGCTGCCAGA" occupy?
[out] lo

[in] Could you tell me which band "TCTTGTAGATGAAAGGTTAAGAAAGCCGAAGCCT" belongs to?
[out] hi

[in] Assign a category based on measured PBM binding z-score for "ACTATTAGTTGAGACGTGGGCAACCGATAGGTTG" and give only the class name.
[out] lo

* * *

Tested on: LXRa:RXRa (NR concentration 270 nM, RXRa partner concentration 90 nM)
assayRemarks: PBM binding z-score (relative to random genomic background probes); higher = stronger binding; sequences stand for … in GC…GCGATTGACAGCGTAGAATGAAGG
// PBM binding z-score lookup, one value per entry
Would you mind answering with just the numeric figure?

Value (PBM binding z-score, LXRa:RXRa (NR concentration 270 nM, RXRa partner concentration 90 nM)) for record "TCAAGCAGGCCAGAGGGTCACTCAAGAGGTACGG" = 0.997

"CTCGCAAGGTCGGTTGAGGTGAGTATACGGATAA" tested on LXRa:RXRa (NR concentration 270 nM, RXRa partner concentration 90 nM) gave PBM binding z-score: 0.469

Entry "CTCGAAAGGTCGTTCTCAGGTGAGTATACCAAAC" : PBM binding z-score on LXRa:RXRa (NR concentration 270 nM, RXRa partner concentration 90 nM) = 4.19

The value of PBM binding z-score recorded for "AGAACGAGCGCACGCTGAGTTGATAGCAGAGTAG" when tested on LXRa:RXRa (NR concentration 270 nM, RXRa partner concentration 90 nM) reads -0.901

Entry "ATCTATAGGTAAGACTCAGTTCAGTGAAGAACGC" , LXRa:RXRa (NR concentration 270 nM, RXRa partner concentration 90 nM) data, PBM binding z-score value: 0.424

The measured PBM binding z-score that "CCTACTGGGCCGAAAAGGTCATTGATGCCGATAA" showed for LXRa:RXRa (NR concentration 270 nM, RXRa partner concentration 90 nM) is 4.38

* * *

Test system: LXRb:RXRa (NR concentration 270 nM, RXRa partner concentration 90 nM)
assayRemarks: PBM binding z-score (relative to random genomic background probes); higher = stronger binding; sequences stand for … in GC…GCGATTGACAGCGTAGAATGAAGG
Let's look at some sequences and their measured PBM binding z-score.
Quick one: just the number, no unit, thanks!

Previously resolved entries follow.
{"itemSequence": "TCATATGGGTAATACAGGTGAAAGTCGGCATCTA", "measValue": 0.779}
{"itemSequence": "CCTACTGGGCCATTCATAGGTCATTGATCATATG", "measValue": 2}

Next, consider the following sequence.
Query "CTACCAAGGTGAACAAGGTCGTCGATTACTATTC" yields PBM binding z-score of 1.95
